What cytotoxicity at 10 µM was measured for each of the following?
Procedure Summary: Toxicity liver stage against HepG2, at 10uM
Type: cell-based
Set-up: test concentration 10 uM, cell line HepG2-A16-CD81EGFP
Particulars: human, HepG2-A16-CD81EGFP cells; read-out: INHIBITION
Give bare numbers, in %.

F[C@@H]1CN(CC2CCCCC2)C[C@@H]1OCc1nc2ccccc2o1	1.9
CC(C)c1noc(CCC(=O)N2CCCC(n3ccnc3)C2)n1 (stereo unspecified)	5.58
O=C(Cc1cccs1)Nc1cnn(C2CCOC2)c1 (stereo unspecified)	-7.86
Cc1ccc([C@@H]2CN(S(=O)(=O)c3cccs3)C[C@H]2N(C)C)cc1	-3.12

Batch: cytotoxicity at 10 µM for all items listed.
1. CN(CC1(CO)CCCC1)[C@@H]1c2ccccc2C2(CCNCC2)[C@H]1O
2. COC1CCCN(C(=O)NCCCF)C1 (stereo unspecified)

1.44
0.215
